Origin of the recorded values: paper PMC3626704

Target: T1, 5-Helix (HIV-1 group M subtype B, HXB2 (gp41 …, stabilised))
T1 construct: also called designed protein based on HIV-1 gp41
Assay: ELISA
Details: one partner purified
measurement name: phage ELISA signal OD450 (OD450)

25C4 bivalent scFv on phage (scFv, V domains shown) VH: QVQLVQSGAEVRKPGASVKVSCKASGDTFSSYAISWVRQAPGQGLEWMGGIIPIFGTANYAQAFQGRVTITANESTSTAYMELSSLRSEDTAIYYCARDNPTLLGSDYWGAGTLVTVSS VL: DIQMTQSPSTLSASIGDRVTITCRASESILGSLAWYQQKPGKAPKLLIYRASHLASGAPSRFSGSGSGTDFTLTISSLQPDDFATYYCQQYSNYPLTFGGGTKLEIK ... 2.5
25D6 bivalent scFv on phage (scFv, V domains shown) VH: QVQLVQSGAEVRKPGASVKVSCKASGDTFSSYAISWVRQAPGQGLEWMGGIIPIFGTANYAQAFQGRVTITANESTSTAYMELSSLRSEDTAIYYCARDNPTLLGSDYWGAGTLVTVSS VL: DIQMTQSPSTLSASIGDRVTITCRASENIYSNLAWYQQKPGKAPKLLISSASRLASGAPSRFSGSGSGTDFTLTISSLQPDDFATYYCQQNSNNPHTFGGGTKLEIK ... 1.6
